Experiment: in vitro
Settings: human
ENDPOINT: CC50

Consider CCC(CC)COC(=O)[C@H](C)N[P@](=O)(OC[C@H]1O[C@@](C#N)(c2ccc3c(N)ncnn23)[C@H](O)[C@@H]1O)Oc1ccccc1 . Its measured CC50 is > 10 µM

* * *

Tested on: hCoV-229E
Assay: CPE-based antiviral assay (CellTiter-Glo cell viability as surrogate of CPE) in MRC5 cells infected with hCoV-229E
Conditions: Human coronavirus 229E, MRC5, 72 h, read-out: EC50, inhibition of hCoV-229E replication
ENDPOINT: pEC50
Give bare numbers, as −log10 of the molar value.

The measured pEC50 associated with CC(C)CC(NC(=O)OCc1ccccc1)C(=O)NC(CCc1ccccc1)C(O)(O)C(F)F (stereo not shown) reads 4.89
